system: Scavenger receptor class B member 1 (Mus musculus) (UniProt Q61009)
Sequence (Q61009 whole entry, looked up): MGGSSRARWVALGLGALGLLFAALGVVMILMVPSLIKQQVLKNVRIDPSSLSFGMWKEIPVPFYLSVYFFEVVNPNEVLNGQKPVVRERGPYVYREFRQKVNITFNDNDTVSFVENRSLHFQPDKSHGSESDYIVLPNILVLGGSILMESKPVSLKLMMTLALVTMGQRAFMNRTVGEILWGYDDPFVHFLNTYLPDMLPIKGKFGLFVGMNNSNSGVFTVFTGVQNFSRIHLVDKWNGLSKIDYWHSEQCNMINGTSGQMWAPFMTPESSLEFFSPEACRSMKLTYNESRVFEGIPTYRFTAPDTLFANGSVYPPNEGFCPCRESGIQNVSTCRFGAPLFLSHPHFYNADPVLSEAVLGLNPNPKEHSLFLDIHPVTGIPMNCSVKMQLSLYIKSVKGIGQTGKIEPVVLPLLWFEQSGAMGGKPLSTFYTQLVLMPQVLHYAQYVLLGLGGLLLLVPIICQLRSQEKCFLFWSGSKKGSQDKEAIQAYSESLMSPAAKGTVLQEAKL
measurementDescription: Alexa488-HDL binding change at mSR-BI cells – ldlA[mSR-BI] cells, powder samples, orthogonal assay for SR-BI HDL uptake inhibitor project, dose response (AID 588777)
setupConditions: Alexa488-HDL binding fluorescence, 3 h
assayReadout: AC50

| molecule | AC50 |
| --- | --- |
| O=C(Nc1ccc(-c2nc3ccc(NC(=O)c4ccccc4)cc3[nH]2)cc1)c1ccccc1 | 0.328 µM |

Lab note: next molecule to report on.
Query: // fetch AC50 given entry "C[C@H](CO)N1C[C@H](C)[C@H](CN(C)S(=O)(=O)c2ccc(F)cc2)Oc2ccc(NS(C)(=O)=O)cc2C1=O"
Reply: 21 µM

Each recorded value in this set is attributed to PubChem BioAssay AID588777.
